- System: Escherichia coli TOP10;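 also: peptides expressed intracellularly from a pBAD plasmid library in pooled LB shake-flask culture, induced with 0.3% L-arabinose, DNA abundance read by NGS, three biological replicates, DESeq2 with apeglm shrinkage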
- Test details: shrunken log2 fold change of peptide-encoding DNA abundance (4.5 h post-induction vs induction); higher = less antimicrobial activity (less host growth inhibition)
- Condition description: time post-induction: 4.5 h; library: site-saturation at positions 5, 18, 19, 20
Label scheme, based on shrunken log2 fold change: L: < -0.1; M: ≥ -0.1 and < 0.1; H: ≥ 0.1

Some solved cases for reference:
INSERT INTO measurements (macromolecule_sequence, answer_label) VALUES
  ('RRIRIRPPRLPRPRPRPQKHPRP', 'L'),
  ('RRIRHRPPRLPRPRPRPYHPPRP', 'M'),
  ('RRIRTRPPRLPRPRPRPWGAPRP', 'H'),
  ('RRIRVRPPRLPRPRPRPANYPRP', 'L'),
  ('RRIRHRPPRLPRPRPRPEHNPRP', 'M'),
  ('RRIRWRPPRLPRPRPRPRLTPRP', 'H'),
  ('RRIRGRPPRLPRPRPRPVVLPRP', 'H'),
  ('RRIRYRPPRLPRPRPRPQSFPRP', 'M');

Band for RRIRDRPPRLPRPRPRPYKKPRP ? M
